Reported values of IC50 for individual entries
test system: MRC5; experiment: Cytotoxicity against human MRC5 cells assessed as reduction in cell viability after 48 hrs by MTT assay; format: cell-based; settings: MRC5, 48 h
property measured: IC50 (µM)

[[record]]
compound = "C=C(C)[C@@H]1CC[C@]2(C(=O)O)CC[C@]3(CO)[C@H](CC[C@@H]4[C@@]5(C)C[C@@H](OC(=O)/C=C/c6ccc(O)c(O)c6)[C@H](OC(=O)/C=C\\c6ccc(O)cc6)C(C)(C)[C@@H]5CC[C@]43C)[C@@H]12"
unit_name = "µM"
measured = 10

[[record]]
compound = "C=C(C)[C@@H]1CC[C@]2(C(=O)O)CC[C@]3(CO)[C@H](CC[C@@H]4[C@@]5(C)C[C@@H](OC(=O)/C=C/c6ccc(O)c(O)c6)[C@H](O)C(C)(C)[C@@H]5CC[C@]43C)[C@@H]12"
unit_name = "µM"
measured = 18.5

[[record]]
compound = "CC1(C)CC[C@]2(C(=O)O)CC[C@]3(C)C(=CC[C@@H]4[C@@]5(C)C[C@@H](OC(=O)/C=C/c6ccc(O)c(O)c6)[C@H](O)C(C)(C)[C@@H]5CC[C@]43C)[C@@H]2C1"
unit_name = "µM"
measured = 7.9

[[record]]
compound = "C=C(C)[C@@H]1CC[C@]2(C(=O)O)CC[C@]3(CO)[C@H](CC[C@@H]4[C@@]5(C)C[C@@H](OC(=O)/C=C/c6ccc(O)c(O)c6)[C@H](OC(=O)/C=C/c6ccc(O)cc6)C(C)(C)[C@@H]5CC[C@]43C)[C@@H]12"
unit_name = "µM"
measured = 7.8

[[record]]
compound = "C=C(C)[C@@H]1CC[C@]2(C(=O)O)CC[C@]3(COC(=O)/C=C/c4ccc(O)c(O)c4)[C@H](CC[C@@H]4[C@@]5(C)CCC(=O)C(C)(C)[C@@H]5CC[C@]43C)[C@@H]12"
unit_name = "µM"
measured = 9.7

[[record]]
compound = "C=C(C)[C@@H]1CC[C@]2(C(=O)O)CC[C@]3(C)[C@H](CC[C@@H]4[C@@]5(C)C[C@@H](OC(=O)/C=C/c6ccc(O)c(O)c6)[C@H](O)C(C)(C)[C@@H]5CC[C@]43C)[C@@H]12"
unit_name = "µM"
measured = 7.9

[[record]]
compound = "C=C(C)[C@@H]1CC[C@]2(C(=O)O)CC[C@]3(C)[C@H](CC[C@@H]4[C@@]5(C)CC[C@H](O)C(C)(C)[C@@H]5CC[C@]43C)[C@@H]12 [BETULINIC ACID]"
unit_name = "µM"
measured = 32.8


----------
Property: selectivity ratio; scope: individual compounds
test: Selectivity index, ratio of IC50 for human MRC5 cells to IC50 for human A549 cells; format: toxicity; settings: MRC5 cells versus A549 cells, read-out: Ratio IC50
property measured: selectivity ratio

[[record]]
item_smiles = "C=C(C)[C@@H]1CC[C@]2(C(=O)O)CC[C@]3(CO)[C@H](CC[C@@H]4[C@@]5(C)C[C@@H](OC(=O)/C=C/c6ccc(O)c(O)c6)[C@H](O)C(C)(C)[C@@H]5CC[C@]43C)[C@@H]12"
property_measured = "selectivity ratio"
measured = 1.2

[[record]]
item_smiles = "C=C(C)[C@@H]1CC[C@]2(C(=O)O)CC[C@]3(CO)[C@H](CC[C@@H]4[C@@]5(C)C[C@@H](OC(=O)/C=C/c6ccc(O)c(O)c6)[C@H](OC(=O)/C=C/c6ccc(O)cc6)C(C)(C)[C@@H]5CC[C@]43C)[C@@H]12"
property_measured = "selectivity ratio"
measured = 1.25

[[record]]
item_smiles = "C=C(C)[C@@H]1CC[C@]2(C(=O)O)CC[C@]3(CO)[C@H](CC[C@@H]4[C@@]5(C)C[C@@H](OC(=O)/C=C/c6ccc(O)c(O)c6)[C@H](OC(=O)/C=C\\c6ccc(O)cc6)C(C)(C)[C@@H]5CC[C@]43C)[C@@H]12"
property_measured = "selectivity ratio"
measured = 2

[[record]]
item_smiles = "CC1(C)CC[C@]2(C(=O)O)CC[C@]3(C)C(=CC[C@@H]4[C@@]5(C)C[C@@H](OC(=O)/C=C/c6ccc(O)c(O)c6)[C@H](O)C(C)(C)[C@@H]5CC[C@]43C)[C@@H]2C1"
property_measured = "selectivity ratio"
measured = 1.66

[[record]]
item_smiles = "C=C(C)[C@@H]1CC[C@]2(C(=O)O)CC[C@]3(C)[C@H](CC[C@@H]4[C@@]5(C)C[C@@H](OC(=O)/C=C/c6ccc(O)c(O)c6)[C@H](O)C(C)(C)[C@@H]5CC[C@]43C)[C@@H]12"
property_measured = "selectivity ratio"
measured = 0.5

[[record]]
item_smiles = "C=C(C)[C@@H]1CC[C@]2(C(=O)O)CC[C@]3(COC(=O)/C=C/c4ccc(O)c(O)c4)[C@H](CC[C@@H]4[C@@]5(C)CCC(=O)C(C)(C)[C@@H]5CC[C@]43C)[C@@H]12"
property_measured = "selectivity ratio"
measured = 0.63

[[record]]
item_smiles = "C=C(C)[C@@H]1CC[C@]2(C(=O)O)CC[C@]3(C)[C@H](CC[C@@H]4[C@@]5(C)CC[C@H](O)C(C)(C)[C@@H]5CC[C@]43C)[C@@H]12"
property_measured = "selectivity ratio"
measured = 0.75


----------
assay: Selectivity index, ratio of IC50 for human MRC5 cells to IC50 for human A375 cells; assay type: toxicity; conditions: MRC5 cells versus A375 cells, read-out: Ratio IC50
Measured selectivity ratio, listed per entry for reference.
property measured: selectivity ratio

[[record]]
molecule = "C=C(C)[C@@H]1CC[C@]2(C(=O)O)CC[C@]3(COC(=O)/C=C/c4ccc(O)c(O)c4)[C@H](CC[C@@H]4[C@@]5(C)CCC(=O)C(C)(C)[C@@H]5CC[C@]43C)[C@@H]12"
measured = 1.25

[[record]]
molecule = "C=C(C)[C@@H]1CC[C@]2(C(=O)O)CC[C@]3(C)[C@H](CC[C@@H]4[C@@]5(C)C[C@@H](OC(=O)/C=C/c6ccc(O)c(O)c6)[C@H](O)C(C)(C)[C@@H]5CC[C@]43C)[C@@H]12"
measured = 1.25

[[record]]
molecule = "CC1(C)CC[C@]2(C(=O)O)CC[C@]3(C)C(=CC[C@@H]4[C@@]5(C)C[C@@H](OC(=O)/C=C/c6ccc(O)c(O)c6)[C@H](O)C(C)(C)[C@@H]5CC[C@]43C)[C@@H]2C1"
measured = 0.67

[[record]]
molecule = "C=C(C)[C@@H]1CC[C@]2(C(=O)O)CC[C@]3(CO)[C@H](CC[C@@H]4[C@@]5(C)C[C@@H](OC(=O)/C=C/c6ccc(O)c(O)c6)[C@H](OC(=O)/C=C\\c6ccc(O)cc6)C(C)(C)[C@@H]5CC[C@]43C)[C@@H]12"
measured = 2.66

[[record]]
molecule = "C=C(C)[C@@H]1CC[C@]2(C(=O)O)CC[C@]3(CO)[C@H](CC[C@@H]4[C@@]5(C)C[C@@H](OC(=O)/C=C/c6ccc(O)c(O)c6)[C@H](OC(=O)/C=C/c6ccc(O)cc6)C(C)(C)[C@@H]5CC[C@]43C)[C@@H]12"
measured = 1.25

[[record]]
molecule = "C=C(C)[C@@H]1CC[C@]2(C(=O)O)CC[C@]3(C)[C@H](CC[C@@H]4[C@@]5(C)CC[C@H](O)C(C)(C)[C@@H]5CC[C@]43C)[C@@H]12 [BETULINIC ACID]"
measured = 0.75

[[record]]
molecule = "C=C(C)[C@@H]1CC[C@]2(C(=O)O)CC[C@]3(CO)[C@H](CC[C@@H]4[C@@]5(C)C[C@@H](OC(=O)/C=C/c6ccc(O)c(O)c6)[C@H](O)C(C)(C)[C@@H]5CC[C@]43C)[C@@H]12"
measured = 1.6


----------
Catalogue of IC50 values
system: A-375; assay: Cytotoxicity against human A375 cells assessed as reduction in cell viability after 48 hrs by MTT assay; type: functional, cell-based; conditions: A-375, 48 h
property measured: IC50

[[record]]
item_smiles = "C=C(C)[C@@H]1CC[C@]2(C(=O)O)CC[C@]3(CO)[C@H](CC[C@@H]4[C@@]5(C)C[C@@H](OC(=O)/C=C/c6ccc(O)c(O)c6)[C@H](OC(=O)/C=C/c6ccc(O)cc6)C(C)(C)[C@@H]5CC[C@]43C)[C@@H]12"
measured = "6.3 µM"

[[record]]
item_smiles = "C=C(C)[C@@H]1CC[C@]2(C(=O)O)CC[C@]3(COC(=O)/C=C/c4ccc(O)c(O)c4)[C@H](CC[C@@H]4[C@@]5(C)CCC(=O)C(C)(C)[C@@H]5CC[C@]43C)[C@@H]12"
measured = "7.7 µM"

[[record]]
item_smiles = "C=C(C)[C@@H]1CC[C@]2(C(=O)O)CC[C@]3(CO)[C@H](CC[C@@H]4[C@@]5(C)C[C@@H](OC(=O)/C=C/c6ccc(O)c(O)c6)[C@H](O)C(C)(C)[C@@H]5CC[C@]43C)[C@@H]12"
measured = "11.5 µM"

[[record]]
item_smiles = "CC1(C)CC[C@]2(C(=O)O)CC[C@]3(C)C(=CC[C@@H]4[C@@]5(C)C[C@@H](OC(=O)/C=C/c6ccc(O)c(O)c6)[C@H](O)C(C)(C)[C@@H]5CC[C@]43C)[C@@H]2C1"
measured = "11.8 µM"

